# experimentSummary: Human HepG2 cell viability assay in 384 well format
# Type: toxicity, cell-based
# Set-up: dose 125 nL, time 70.5 hour; concentration not given beside the values
# details: HepG2 cells, read-out: Inhibition
Listing of entries alongside the reported cytotoxicity at 70.5 h.
measuredMetric: cytotoxicity at 70.5 h (%)

> print(dat)
                                    compound  recordedvalue
 1       Cc1c(C(=O)N(C)C)cccc1N(C)S(C)(=O)=O          0.872
 2  CN(Cc1cn2c(n1)CN(C(=O)CC1CC1)CC2)Cc1ccco1          -4.98
 3  COCC1Cn2nnc(-c3cnn(C)c3)c2CN1Cc1cccs1 (stereo not given)          -12.1
 4  Cc1cnn(CC(=O)NCC2CCN(c3cc(Cl)ccc3C)C2)c1 (stereo not given)            6.3
 5  Cn1cc(CN2CCOC(c3nccnc3-c3cccc(F)c3)C2)cn1 (stereo not given)           21.8
 6  Cc1ccccc1SC1CCN(C(=O)[C@@H]2C[C@@H](N)CN2)CC1          -2.11
 7      COC(=O)NCCCC(=O)NC1(c2cccc(Cl)c2)CC1          -6.46
 8  Cc1oc(-c2ccoc2)nc1CN1CCCCC1CCc1ccccc1 (stereo not given)          -2.03
 9  O=C(Nc1ccncc1)NC1CCN(c2ccccc2Cl)C1=O (stereo not given)          -5.27
10      Cc1nsc(N2CCCN(C(=O)NCc3cccnc3)CC2)n1         -0.506
11  NC(=O)C(CNC(=O)Cc1ccsc1)Cc1ccc(F)cc1 (stereo not given)          -3.39
12  Cc1ccc(CNC(C)c2nnc3n2CCCC3)o1 (stereo not given)          -8.48
13         CSCCC(=O)N1CCc2c(ncnc2N2CCOCC2)C1          -2.83
14              Cc1cc(-c2ccncc2)ccc1OCC(N)=O             -5
15  O=C(NC[C@@]1(COc2cnccn2)C[C@@H](O)[C@@H](O)C1)C1CC1             15
16  CCc1ccc(CN(C)Cc2cnc(S(=O)(=O)CC)n2CCOC)cc1          -7.48
17  CCc1nc(CN2CCCC(NCc3nc4cccnc4[nH]3)C2)no1 (stereo not given)           18.9
18  c1ccc(-c2noc(CN3CCCC(Cn4cncn4)C3)n2)nc1 (stereo not given)          -11.5
19        CC(C)CNC1(Cc2cc(-c3ccccc3)on2)COC1          -6.11
20  COc1c(F)cc(NCC(=O)NC(C)(C#N)C2CC2)cc1F (stereo not given)          -0.61
21      O=C(NCCc1ccccc1)NCCN1CCC(c2cccs2)CC1           8.49
22  Cc1nc(COCc2cnc3n2CCN(C2CCC2)C3C)cs1 (stereo not given)          -12.4
23      O=C1CCCN1c1cccc(CNCc2nc(C3CC3)no2)c1           8.67
24            CN(C)c1ncnc2c1CCN(c1ccccc1)CC2           13.6
25  Cc1cc(CC(C)Nc2nc(-c3cccnc3)nc3c2CNC3)[nH]n1 (stereo not given)            -12

====

# experimentSummary: Human HepG2 cell viability assay in 384 well format
# Assay type: toxicity, cell-based
# Parameters: dose 125 nL, time 70.5 hour; concentration not given beside the values
# details: HepG2 cells, read-out: Inhibition
Listing: cytotoxicity at 70.5 h of selected compounds
measuredMetric: cytotoxicity at 70.5 h (%)

> print(dat)
                                    compound          measuredmetric  recordedvalue
 1  CN1C[C@H]2CN(Cc3cccc(OC(F)(F)F)c3)CCN2C1=O  cytotoxicity at 70.5 h           8.83
 2  Cc1ccnc(OC[C@]23COC[C@H]2CN(C(=O)Cc2ccsc2)C3)n1  cytotoxicity at 70.5 h          -7.56
 3     CSc1ncccc1C(=O)Nc1ccc(Cn2ccccc2=O)cc1  cytotoxicity at 70.5 h           18.3
 4  O=C(Cc1ccsc1)N1C[C@@H]2CN(Cc3ccoc3)CCO[C@@H]2C1  cytotoxicity at 70.5 h          -11.4
 5  CCc1cn[nH]c1C1CCCN(C(=O)c2cc(C#N)c(=O)[nH]c2C)C1 (stereo unspecified)  cytotoxicity at 70.5 h          -22.8
 6  Cc1noc(C)c1C1CCCN1CCC(=O)N1CCc2ccccc2C1 (stereo unspecified)  cytotoxicity at 70.5 h          -13.3
 7  CC(=O)N1CCCN(C(=O)NCCc2cc(Cl)cc(Cl)c2)CC1  cytotoxicity at 70.5 h          -6.77
 8  Cc1ccc(-c2ncc(CN3CCOC(c4ccco4)C3)s2)o1 (stereo unspecified)  cytotoxicity at 70.5 h          -6.87
 9       Cn1cc(-c2cnc(N3CCOCC3)nc2)cc1C(=O)O  cytotoxicity at 70.5 h          -2.63
10  O=C(c1ccncc1F)N1CC[C@@H]2OC(COCC3CC3)CC[C@@H]21 (stereo partly specified)  cytotoxicity at 70.5 h           5.27
11             CC(C)N(Cc1ccc(C(=O)O)o1)C(C)C  cytotoxicity at 70.5 h          -7.28
12    Cn1ccc2c(-c3cc(N)nc(N4CCOCC4)n3)ccnc21  cytotoxicity at 70.5 h           1.46
13  COc1ccc(CNC(C)c2ccccc2Cl)c(OC)c1OC (stereo unspecified)  cytotoxicity at 70.5 h           18.3
14         Cc1nccc(C2CN(S(=O)(=O)N(C)C)C2)n1  cytotoxicity at 70.5 h          -1.63
15  Cc1nnc(NC(=O)CN(C)CC2CCCN2c2cccnn2)s1 (stereo unspecified)  cytotoxicity at 70.5 h           18.3
16       CN(CCc1cn[nH]c1)C(=O)CCc1ccc(Cl)cc1  cytotoxicity at 70.5 h         -0.186
17  Cn1cc(CNC2CC3(CCN(S(C)(=O)=O)CC3)c3ccccc32)cn1 (stereo unspecified)  cytotoxicity at 70.5 h          -11.7
18     CN(Cc1nnc2n1CCC2)C(=O)c1ccc2c(c1)OCO2  cytotoxicity at 70.5 h          -11.9
19  CCOc1ccc(C(=O)Nc2c(C)nc3scc(C)n3c2=O)cc1  cytotoxicity at 70.5 h         -0.312
20   c1ccc(OCCCn2ccnc2-c2cn(C3CCNCC3)nn2)cc1  cytotoxicity at 70.5 h          -4.27
21  COc1cccc(OCC2CCCN(C(=O)c3ncoc3C3CC3)C2)c1 (stereo unspecified)  cytotoxicity at 70.5 h          -11.7
22  Cc1ccc(C(=O)NCC(C)CN2CCCC2=O)c(=O)[nH]1 (stereo unspecified)  cytotoxicity at 70.5 h           -113
23  O=C(COc1ccc(F)cc1)N1CCO[C@H]2[C@@H](OCC3CC3)CC[C@@H]21  cytotoxicity at 70.5 h          -6.33
24  CC(NC(=O)COc1cccc[n+]1[O-])C1CC1 (stereo unspecified)  cytotoxicity at 70.5 h          -4.57
25  COCC(=O)N1C[C@@H](c2cccc(F)c2)[C@H]2[C@H]1CCCCCN2C(C)=O  cytotoxicity at 70.5 h            7.2
26  CC(C)(C)c1nc(CN(Cc2cccs2)C2CCS(=O)(=O)C2)no1 (stereo unspecified)  cytotoxicity at 70.5 h          -4.17
27  COc1ccc2c(c1)Cc1c-2nc(N)c(C#N)c1C1CCOC1 (stereo unspecified)  cytotoxicity at 70.5 h            2.5
28  Cn1nnc2c1CCN(S(C)(=O)=O)C2COCC1CC1 (stereo unspecified)  cytotoxicity at 70.5 h          0.405
29  CCc1nc(C2CCCN2C(=O)CCn2cncn2)no1 (stereo unspecified)  cytotoxicity at 70.5 h          -21.3
30  COc1cc(C)c(S(=O)(=O)CC(=O)N(C)C(C)C)cc1OC  cytotoxicity at 70.5 h          -5.84
31     Cc1nc(NCCc2ccccc2)cc(C(=O)N2CCCCC2)n1  cytotoxicity at 70.5 h         -0.559
32      Cc1occc1C(=O)NCC(=O)NCCOc1cccc(Cl)c1  cytotoxicity at 70.5 h          -11.3
33  CC(=O)N[C@H]1CN(CC(=O)NCc2ccccc2C)C[C@@H]1C(C)C  cytotoxicity at 70.5 h          -4.45
34  Cc1ccc(S(=O)(=O)N2CCN(CCCn3ccnc3)CC2)cc1  cytotoxicity at 70.5 h          -1.75
35      O=C(Cc1ccsc1)N1Cc2nc(CN3CCCCC3)oc2C1  cytotoxicity at 70.5 h          -4.42
36  CC(=O)N1CCC(C(=O)N(CC(F)F)c2cccc(Cl)c2)CC1  cytotoxicity at 70.5 h          0.334
37  CNC(=O)C1Cn2ccnc2C2(CCN(CCF)CC2)O1 (stereo unspecified)  cytotoxicity at 70.5 h          -13.9
38  NCCn1nc(C2CCN(Cc3ccccc3Cl)C2)c2nccnc21 (stereo unspecified)  cytotoxicity at 70.5 h          -4.18
39  COc1ccc(S(=O)(=O)N2CCC(OCc3ccccn3)C2)cc1Br (stereo unspecified)  cytotoxicity at 70.5 h          -9.24
40  CC(c1nc(C(C)(C)C)no1)N1CCN(c2ccc(C#N)cn2)CC1 (stereo unspecified)  cytotoxicity at 70.5 h          -13.9
41  Cc1nc(CN2CCC3(C2)CN(C(=O)c2ccc[nH]2)C3)cs1  cytotoxicity at 70.5 h          -5.84
42  COc1cc(S(=O)(=O)N2C[C@@H](C)[C@@](C)(O)C2)c(C)cc1C  cytotoxicity at 70.5 h          0.245
43  CN(Cc1cccs1)C(=O)CS(=O)(=O)Cc1ccc(Cl)c(Cl)c1  cytotoxicity at 70.5 h           26.3
44  Cc1cc(N2CCCCC2Cn2nc(C)cc2C)n2ncnc2n1 (stereo unspecified)  cytotoxicity at 70.5 h          -4.18
45  CN1CCCc2cc(CNC(=O)c3ccc(NC4CC4)nc3)ccc21  cytotoxicity at 70.5 h          -3.79
46  CC(C)(C)c1c[nH]c([C@@H]2COCCN2C2CCCCC2)n1  cytotoxicity at 70.5 h         -0.143
